- Tested on: Priestia megaterium
- assay_method_text: Binding affinity to Bacillus megaterium pHis1525 DNA at 25 to 50 ug/ml after 30 mins by agarose gel electrophoresis
The source made the active and inactive calls. The rule behind the calls is not given here. Where a SMILES comes first, the peptide text is derived from it. The star is where a group is joined. Decanoyl = CCCCCCCCCC(=O)*
Labels: active, inactive

{"columns": ["compound", "target_or_test_system", "class"],
 "data": [
  ["CCCCCCCCCC(=O)N[C@@H](CCCCN)C(=O)N[C@@H](Cc1c[nH]c2ccccc12)C(=O)N[C@@H](CCCCN)C(=O)N[C@@H](Cc1c[nH]c2ccccc12)C(N)=O (Decanoyl-KWKW-NH2)", "Priestia megaterium", "active"],
  ["CCCCCCCCCC(=O)N[C@@H](CCCNC(=N)N)C(=O)N[C@H](C(=O)N[C@@H](CCCCN)C(=O)N[C@@H](Cc1c[nH]c2ccccc12)C(=O)N[C@@H](Cc1c[nH]c2ccccc12)C(=O)N[C@@H](CCCCN)C(N)=O)[C@@H](C)CC (Decanoyl-RIKWWK-NH2)", "Priestia megaterium", "active"],
  ["CCCCCCCCCC(=O)N[C@@H](CCCNC(=N)N)C(=O)N[C@H](C(=O)N[C@@H](CCCCN)C(=O)N[C@@H](Cc1c[nH]c2ccccc12)C(=O)N[C@@H](CCCCN)C(N)=O)[C@@H](C)CC (Decanoyl-RIKWK-NH2)", "Priestia megaterium", "inactive"],
  ["CCCCCCCCCC(=O)N[C@@H](CCCNC(=N)N)C(=O)N[C@@H](CCCCN)C(=O)N[C@@H](Cc1c[nH]c2ccccc12)C(=O)N[C@@H](Cc1c[nH]c2ccccc12)C(=O)N[C@@H](CCCCN)C(N)=O (Decanoyl-RKWWK-NH2)", "Priestia megaterium", "active"]
]}
